- System: Staphylococcus haemolyticus
- assayMethodText: Antimicrobial activity against oxacillin-resistant Staphylococcus haemolyticus clinical isolates by broth microdilution method
- Format: functional
quantity: MIC90

chemicalString	MIC90
Cc1onc(-c2ccccc2)c1C(=O)N[C@@H]1C(=O)N2[C@@H]1SC(C)(C)[C@@H]2C(=O)O	> 8 µg/mL
CN[C@H](CC(C)C)C(=O)N[C@H]1C(=O)N[C@@H](CC(N)=O)C(=O)N[C@H]2C(=O)N[C@H]3C(=O)N[C@H](C(=O)N[C@H](C(=O)O)c4cc(O)cc(O)c4-c4cc3ccc4O)[C@H](O)c3ccc(c(Cl)c3)Oc3cc2cc(c3O[C@@H]2O[C@H](CO)[C@@H](O)[C@H](O)[C@H]2O[C@H]2C[C@](C)(N)[C@H](O)[C@H](C)O2)Oc2ccc(cc2Cl)[C@H]1O	2 µg/mL
CCC[C@@H]1C[C@@H](C(=O)N[C@@H]([C@H]2O[C@H](SC)[C@H](O)[C@@H](O)[C@H]2O)[C@H](C)Cl)N(C)C1	> 4 µg/mL
CN[C@H](CC(C)C)C(=O)N[C@H]1C(=O)N[C@@H](CC(N)=O)C(=O)N[C@H]2C(=O)N[C@H]3C(=O)N[C@H](C(=O)N[C@H](C(=O)O)c4cc(O)cc(O)c4-c4cc3ccc4O)[C@H](O[C@H]3C[C@](C)(N)[C@@H](O)[C@H](C)O3)c3ccc(c(Cl)c3)Oc3cc2cc(c3O[C@@H]2O[C@H](CO)[C@@H](O)[C@H](O)[C@H]2O[C@H]2C[C@](C)(NCc3ccc(-c4ccc(Cl)cc4)cc3)[C@@H](O)[C@H](C)O2)Oc2ccc(cc2Cl)[C@H]1O	0.12 µg/mL
CC(=O)NC[C@H]1CN(c2ccc(N3CCOCC3)c(F)c2)C(=O)O1	1 µg/mL

Now look at this one.
Q: Reported MIC90 for Staphylococcus haemolyticus, given CCCCCCCCCC(=O)N[C@@H](Cc1c[nH]c2ccccc12)C(=O)N[C@H](CC(N)=O)C(=O)N[C@@H](CC(=O)O)C(=O)N[C@@H]1C(=O)NCC(=O)N[C@@H](CCCN)C(=O)N[C@@H](CC(=O)O)C(=O)N[C@H](C)C(=O)N[C@@H](CC(=O)O)C(=O)NCC(=O)N[C@H](CO)C(=O)N[C@@H]([C@H](C)CC(=O)O)C(=O)N[C@@H](CC(=O)c2ccccc2N)C(=O)O[C@@H]1C ?
Result: 0.5 µg/mL
